Assay: Solubility measurement (DMSO solution precipitation method)
Assay type: physicochemical
Conditions: aqueous buffer, kinetic from dmso stock, McIlvaine buffer pH 6.8, 24 h, read-out: solubility pH 6.8
Experimental: A 10 mM DMSO stock solution of a test compound is used to determine its aq. solubility. The DMSO solution is diluted with an aq. medium (McIlvaine buffer with pH=4.5 or 6.8) to a final concentration of 250 μM. After 24 h of shaking at ambient temperature a potentially formed precipitate is removed by filtration. […]
The entries below are paired with their reported solubility at 24 h.

Some solved cases for reference:
C[C@H](Oc1nc(-c2onc3c2CCC[C@@]32CCCc3sc(N)c(C#N)c32)nc2c1n(C)c(=O)n2[C@@H]1CCOC1)[C@@H]1[C@H](F)CCN1C [I-4] | 28 µg/mL
CO[C@H]1C[C@H](n2c(=O)n(C)c3c(O[C@@H](C)[C@@H]4CCCN4C)nc(-c4onc5c4CCC[C@@]54CCCc5sc(N)c(C#N)c54)nc32)C1 [I-16] | > 138 µg/mL
C[C@H](Oc1nc(-c2noc3c2CCC[C@@]32CCCc3sc(N)c(C#N)c32)nc2c1COC[C@]21CCOC1)[C@@H]1CCCN1C [II-8] | > 143 µg/mL
C[C@H](Oc1nc(-c2onc3c2CCC[C@@]32CCCc3sc(N)c(C#N)c32)nc2c1n(C)c(=O)n2[C@@]12COC[C@@H]1C2)[C@@H]1CCCN1C [I-29] | > 165 µg/mL

### Prompt Quick check: solubility at 24 h of C[C@H](Oc1nc(-c2onc3c2CCC[C@@]32CCCc3sc(N)c(C#N)c32)nc2c1n(C)c(=O)n2[C@@H]1CCOC1)[C@@H]1CCCN1C [I-20] ?
### Response > 154 µg/mL

### Prompt Quick check: solubility at 24 h of CCn1c(=O)n([C@@H]2CCCOC2)c2nc(-c3onc4c3CCC[C@@]43CCCc4sc(N)c(C#N)c43)nc(OC[C@@]34CCCN3C[C@H](F)C4)c21 [I-33] ?
### Response 8 µg/mL

* * *

System: SK-CO-1 cells
Test: SK-CO-1 CTG proliferation assay (120 h) (CRC, G12V)
Type: cell-based
Conditions: Homo sapiens
Endpoint: IC50 (nM)

CO[C@@H]1C[C@@H]([C@H](C)Oc2nc(-c3noc4c3CCC[C@@]43CCCc4sc(N)c(C#N)c43)nc3c2CN(C2COC2)C[C@]32CCOC2)N(C)C1 | 6
C[C@H](Oc1nc(-c2noc3c2CCC[C@@]32CCCc3sc(N)c(C#N)c32)nc2c1cnn2[C@@H]1CCOC1)[C@@H]1CCCN1C | 10
C[C@H](Oc1nc(-c2onc3c2CCC[C@@]32CCCc3sc(N)c(C#N)c32)nc2c1ncn2[C@@H]1CCOC1)[C@@H]1CCCN1C | 32

I. C[C@H](Oc1nc(-c2noc3c2CCC[C@@]32CCCc3sc(N)c(C#N)c32)nc2c1n(C)c(=O)n2[C@H]1CO[C@@H](C)C1)[C@@H]1CCCN1C
II. CC(C)n1c(=O)n([C@@H]2CCOC2)c2nc(-c3onc4c3CCC[C@@]43CCCc4sc(N)c(C#N)c43)nc(O[C@@H](C)[C@@H]3CCCN3C)c21
III. CO[C@@H]1C[C@@H]([C@H](C)Oc2nc(-c3noc4c3CCC[C@@]43CCCc4sc(N)c(C#N)c43)nc3c2n(C)c(=O)n3[C@@]23COC[C@@H]2C3)N(C)C1
### Prompt Please list the entries, largest IC50 first. Show the ranking through the labels, in the order asked for.
### Response II, III, I
(II: 43 nM, III: 2 nM, I: 1 nM)
